test: qHTS assay to identify small molecule agonists of the estrogen receptor alpha (ER-alpha) signaling pathway in the presence of an antagonist - cell viability counter screen (AID 1259386); conditions: VM7Luc4E2 viability, CellTiter-Fluor fluorescence, 22 h; series mostly up to 92.4 µM;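 note: cells exposed to compounds for 22 h at 37 °C before the viability read; nearly all actives have a fitted effect of over 30% in size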
Records with an inconclusive call do not appear. Activity calls are given as the source filed them. Calls come from the whole dose curve; as a rule, active = well fitted cell-killing curve with a large enough effect in the repeat runs; inconclusive = weak or mixed curves, or effect the other way; inactive = no such curve, though single readings can be large or run the other way.
Possible outcomes: t for active, f for inactive

- Nc1ccc(C(=O)O)c(O)c1: f
- Cc1c(C)c2c(c(C)c1OC(=O)c1cccnc1)CC[C@@](C)(CCC[C@H](C)CCC[C@H](C)CCCC(C)C)O2: f
- O=S(=O)(O)c1ccc(N=Nc2c(O)ccc3ccccc23)cc1: t
- C#C[C@]1(OC(C)=O)CC[C@H]2[C@@H]3CCC4=C/C(=N/O)CC[C@@H]4[C@H]3CC[C@@]21CC: f
- Cc1cc(C(C)(C)C)c(O)c(C)c1Cn1c(=O)n(Cc2c(C)cc(C(C)(C)C)c(O)c2C)c(=O)n(Cc2c(C)cc(C(C)(C)C)c(O)c2C)c1=O: f
- CC1=Nc2ccccc2C1(C)C: f
- CCCCC/C=C\C/C=C\CCCCCCCC(=O)O: f
- C=C(C)C(=O)OCCCCCCCCCC: f
- CCc1ccc(Br)cc1: f
- O=C(O)Cc1ccccc1Nc1c(Cl)cccc1Cl: f
- Cc1ccc(C(C)C)cc2c(C)ccc1-2: f
- C[Si](Cl)(c1ccccc1)c1ccccc1: f
- COc1cc(C)ccc1O: f
- CCCc1ccc(OCC(=O)N2CCN(C(=O)COc3ccc(CCC)cc3OC)CC2)c(OC)c1: f

The origin of these recorded values is PubChem BioAssay (Tox21).
